Would you kindly list % cholesterol efflux/4 hours at 3.0 µg/ml for each of these binders?
Biological target: ATP-binding cassette transporter A1 (ABCA1) (UniProt P41233 1-2261, limits assumed)
Sequence (P41233 whole entry): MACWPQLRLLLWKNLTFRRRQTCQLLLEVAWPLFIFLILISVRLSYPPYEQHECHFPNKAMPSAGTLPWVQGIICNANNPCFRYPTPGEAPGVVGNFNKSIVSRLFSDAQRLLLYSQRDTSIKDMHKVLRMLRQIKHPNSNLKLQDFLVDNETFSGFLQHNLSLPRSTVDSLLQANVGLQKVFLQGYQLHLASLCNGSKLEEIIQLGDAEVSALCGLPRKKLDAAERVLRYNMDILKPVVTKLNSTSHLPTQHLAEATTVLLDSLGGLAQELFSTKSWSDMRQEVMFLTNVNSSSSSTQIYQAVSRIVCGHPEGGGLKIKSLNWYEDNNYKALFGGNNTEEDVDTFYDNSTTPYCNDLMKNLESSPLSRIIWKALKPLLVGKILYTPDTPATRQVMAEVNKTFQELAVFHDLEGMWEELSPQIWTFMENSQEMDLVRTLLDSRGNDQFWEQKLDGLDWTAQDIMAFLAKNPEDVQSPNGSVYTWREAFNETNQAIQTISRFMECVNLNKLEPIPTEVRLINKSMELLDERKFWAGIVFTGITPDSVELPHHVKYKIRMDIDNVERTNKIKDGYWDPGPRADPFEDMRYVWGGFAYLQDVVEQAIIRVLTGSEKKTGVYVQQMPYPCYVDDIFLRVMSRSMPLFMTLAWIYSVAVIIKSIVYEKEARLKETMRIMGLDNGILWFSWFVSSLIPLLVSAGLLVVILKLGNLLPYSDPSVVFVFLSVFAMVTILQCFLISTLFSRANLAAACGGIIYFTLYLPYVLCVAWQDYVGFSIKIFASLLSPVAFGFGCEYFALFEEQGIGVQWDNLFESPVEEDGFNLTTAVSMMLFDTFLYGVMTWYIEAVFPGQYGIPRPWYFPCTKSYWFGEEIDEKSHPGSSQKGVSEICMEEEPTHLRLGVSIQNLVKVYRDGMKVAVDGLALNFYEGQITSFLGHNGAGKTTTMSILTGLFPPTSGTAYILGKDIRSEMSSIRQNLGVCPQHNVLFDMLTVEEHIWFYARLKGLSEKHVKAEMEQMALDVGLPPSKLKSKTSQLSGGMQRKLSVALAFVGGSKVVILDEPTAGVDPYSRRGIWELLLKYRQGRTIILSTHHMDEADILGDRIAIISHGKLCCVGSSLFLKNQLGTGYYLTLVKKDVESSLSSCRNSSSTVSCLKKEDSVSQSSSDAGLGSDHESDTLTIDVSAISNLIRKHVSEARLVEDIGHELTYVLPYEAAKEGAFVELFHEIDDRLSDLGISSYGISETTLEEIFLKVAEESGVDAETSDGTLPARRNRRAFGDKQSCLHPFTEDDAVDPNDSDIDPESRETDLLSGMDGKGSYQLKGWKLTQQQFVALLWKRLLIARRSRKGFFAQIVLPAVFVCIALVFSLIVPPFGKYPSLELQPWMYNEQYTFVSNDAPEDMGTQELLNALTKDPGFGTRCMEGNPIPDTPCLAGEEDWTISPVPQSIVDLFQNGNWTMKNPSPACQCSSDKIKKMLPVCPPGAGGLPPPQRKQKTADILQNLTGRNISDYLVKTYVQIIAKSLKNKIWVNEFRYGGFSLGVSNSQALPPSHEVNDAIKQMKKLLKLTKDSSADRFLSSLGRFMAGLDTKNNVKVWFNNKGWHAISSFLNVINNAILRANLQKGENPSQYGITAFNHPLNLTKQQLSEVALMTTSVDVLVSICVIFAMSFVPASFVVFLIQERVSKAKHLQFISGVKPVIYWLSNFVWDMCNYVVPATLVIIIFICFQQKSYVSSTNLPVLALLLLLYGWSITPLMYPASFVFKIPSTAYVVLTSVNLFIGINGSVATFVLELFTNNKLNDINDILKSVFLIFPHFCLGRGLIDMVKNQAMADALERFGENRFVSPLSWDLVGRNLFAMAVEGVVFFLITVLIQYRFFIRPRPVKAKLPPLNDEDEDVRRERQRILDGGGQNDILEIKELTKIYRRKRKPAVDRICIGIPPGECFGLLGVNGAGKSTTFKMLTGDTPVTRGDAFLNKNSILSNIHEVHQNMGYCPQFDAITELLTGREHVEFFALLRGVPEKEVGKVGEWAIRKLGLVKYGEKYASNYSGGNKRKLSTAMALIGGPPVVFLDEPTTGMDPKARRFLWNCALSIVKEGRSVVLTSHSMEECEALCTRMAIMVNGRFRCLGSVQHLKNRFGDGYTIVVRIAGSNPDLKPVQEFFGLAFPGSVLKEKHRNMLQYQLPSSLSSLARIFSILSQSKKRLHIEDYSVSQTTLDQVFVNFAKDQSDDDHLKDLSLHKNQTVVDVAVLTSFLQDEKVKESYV
Test: cell-based or functional assay
Number plus unit, in that order.

Input line: Quick check: % cholesterol efflux/4 hours at 3.0 µg/ml of DLRDRLDAWLDLLRDLLDRL [N1154-11] ?
Output line: 4.84%

Input line: Now the same for ELRDKLEAWLDLLRELLERL [N1154-8]
Output line: 3.41%

Input line: Now the same for DLRDKLDAWLDLLRDLLDRL [N1154-9]
Output line: 3.48%

Input line: Now the same for ELREKLEAWLELLRELLERL [N1154-6]
Output line: 4.73%

Input line: Now the same for ELRDRLEAWLDLLRELLERL [N1154-10]
Output line: 5.25%

Input line: Now the same for ELRERLEAWLELLRELLERL [N1154-7]
Output line: 4.14%

Reference source for all entries: patent US20110190196A1
